Measured DC50 of individual entries
# tgt: EGFR L858R/T790M/C797S (BaF3-LTC cells) (Homo sapiens, UniProt P00533, C797S/L858R/T790M)
# Construct: expressed in transfected cells; host or cells: BaF3
# Sequence (P00533 25-1210 T790M/C797S/L858R): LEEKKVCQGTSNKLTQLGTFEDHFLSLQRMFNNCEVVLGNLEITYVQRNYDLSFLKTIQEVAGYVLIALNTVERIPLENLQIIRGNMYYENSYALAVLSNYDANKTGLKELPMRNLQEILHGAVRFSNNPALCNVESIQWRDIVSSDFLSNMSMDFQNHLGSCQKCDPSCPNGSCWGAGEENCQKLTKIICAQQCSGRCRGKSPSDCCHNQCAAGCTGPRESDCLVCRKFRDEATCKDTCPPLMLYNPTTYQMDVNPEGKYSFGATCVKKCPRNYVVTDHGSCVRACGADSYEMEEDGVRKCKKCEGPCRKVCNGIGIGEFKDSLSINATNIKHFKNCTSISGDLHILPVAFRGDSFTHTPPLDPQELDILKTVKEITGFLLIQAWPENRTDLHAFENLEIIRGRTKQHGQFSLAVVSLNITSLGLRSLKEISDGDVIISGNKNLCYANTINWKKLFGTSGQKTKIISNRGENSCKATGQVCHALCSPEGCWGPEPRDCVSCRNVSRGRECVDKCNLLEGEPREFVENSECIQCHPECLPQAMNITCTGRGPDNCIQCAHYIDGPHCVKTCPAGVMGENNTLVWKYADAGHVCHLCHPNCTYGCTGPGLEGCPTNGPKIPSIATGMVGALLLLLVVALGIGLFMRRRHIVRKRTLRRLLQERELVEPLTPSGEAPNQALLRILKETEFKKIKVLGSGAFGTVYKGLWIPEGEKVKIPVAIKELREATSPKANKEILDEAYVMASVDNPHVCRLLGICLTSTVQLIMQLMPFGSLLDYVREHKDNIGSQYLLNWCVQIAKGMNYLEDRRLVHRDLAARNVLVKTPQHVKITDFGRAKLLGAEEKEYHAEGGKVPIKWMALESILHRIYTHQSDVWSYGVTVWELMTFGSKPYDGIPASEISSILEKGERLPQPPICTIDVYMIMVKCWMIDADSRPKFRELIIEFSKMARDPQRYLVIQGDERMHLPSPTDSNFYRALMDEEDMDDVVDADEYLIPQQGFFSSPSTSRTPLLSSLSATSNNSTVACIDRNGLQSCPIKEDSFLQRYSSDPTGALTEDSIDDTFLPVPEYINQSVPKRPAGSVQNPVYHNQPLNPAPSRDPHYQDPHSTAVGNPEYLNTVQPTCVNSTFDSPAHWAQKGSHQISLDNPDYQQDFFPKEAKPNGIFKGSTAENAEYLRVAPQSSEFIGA
# assay.protocol: EGFR degradation HTRF assay, BaF3-LTC cells
# Assay type: cell-based
# test.conditions: BaF3-LTC cells; EGFR degradation, IC50 (DC50) from curve fit; read-out: DC50(nM) BaF3-LTC
Report the value in nM with no unit label.

Worked set:
COc1cc(N2CCC(N3CCN(C(=O)[C@H]4CN(c5cc(F)c([C@H]6CCC(=O)NC6=O)c(F)c5)CC4(C)C)CC3)CC2)c(C)cc1Nc1ncc(Br)c(Nc2ccc3nc(C)c(F)cc3c2P(C)(C)=O)n1
5.59
CCOc1ccc2c(P(C)(C)=O)c(Nc3nc(Nc4cc(CC)c(N5CCC(N6CCN(C(=O)[C@@H]7CCN(c8cc(F)c([C@H]9CCC(=O)NC9=O)c(F)c8)C7)CC6)CC5)cc4OC)ncc3Br)ccc2n1
38
CCc1cc(Nc2ncc(Br)c(Nc3ccc4nc(C#N)ccc4c3P(C)(C)=O)n2)c(OC)cc1N1CCC(N2CCN(CCc3cc(F)c([C@H]4CCC(=O)NC4=O)c(F)c3)CC2)CC1
6.79
CCc1cc(Nc2ncc(Br)c(Nc3cc(F)c4nc(C)ccc4c3P(C)(C)=O)n2)c(OC)cc1N1CCC(N2CCN(C(=O)[C@@H]3CCN(c4cc(F)c([C@H]5CCC(=O)NC5=O)c(F)c4)C3)CC2)CC1
10.6
[2H]C1([2H])CC([2H])(c2c(F)cc(CCN3CCN(C4CCN(c5cc(OCC)c(Nc6ncc(Br)c(Nc7ccc8nc(C)ccc8c7P(C)(C)=O)n6)cc5CC)CC4)CC3)cc2F)C(=O)NC1=O (stereo not shown)
20.5

For this molecule ( CCc1cc(Nc2ncc(Br)c(Nc3ccc4nc(C)ccc4c3P(C)(C)=O)n2)c(OC)cc1N1CCC(N2CCN(C(=O)C3CN(c4cccc5c4C(C)(C)C(=O)N5C4CCC(=O)NC4=O)C3)CC2)CC1 (stereo not shown) ), measured DC50 is 4.3

----------
# tgt: EGFR WT (BaF3 WT cells) (Homo sapiens, UniProt P00533)
# Construct: expressed in transfected cells; host or cells: BaF3
# Sequence (P00533 25-1210): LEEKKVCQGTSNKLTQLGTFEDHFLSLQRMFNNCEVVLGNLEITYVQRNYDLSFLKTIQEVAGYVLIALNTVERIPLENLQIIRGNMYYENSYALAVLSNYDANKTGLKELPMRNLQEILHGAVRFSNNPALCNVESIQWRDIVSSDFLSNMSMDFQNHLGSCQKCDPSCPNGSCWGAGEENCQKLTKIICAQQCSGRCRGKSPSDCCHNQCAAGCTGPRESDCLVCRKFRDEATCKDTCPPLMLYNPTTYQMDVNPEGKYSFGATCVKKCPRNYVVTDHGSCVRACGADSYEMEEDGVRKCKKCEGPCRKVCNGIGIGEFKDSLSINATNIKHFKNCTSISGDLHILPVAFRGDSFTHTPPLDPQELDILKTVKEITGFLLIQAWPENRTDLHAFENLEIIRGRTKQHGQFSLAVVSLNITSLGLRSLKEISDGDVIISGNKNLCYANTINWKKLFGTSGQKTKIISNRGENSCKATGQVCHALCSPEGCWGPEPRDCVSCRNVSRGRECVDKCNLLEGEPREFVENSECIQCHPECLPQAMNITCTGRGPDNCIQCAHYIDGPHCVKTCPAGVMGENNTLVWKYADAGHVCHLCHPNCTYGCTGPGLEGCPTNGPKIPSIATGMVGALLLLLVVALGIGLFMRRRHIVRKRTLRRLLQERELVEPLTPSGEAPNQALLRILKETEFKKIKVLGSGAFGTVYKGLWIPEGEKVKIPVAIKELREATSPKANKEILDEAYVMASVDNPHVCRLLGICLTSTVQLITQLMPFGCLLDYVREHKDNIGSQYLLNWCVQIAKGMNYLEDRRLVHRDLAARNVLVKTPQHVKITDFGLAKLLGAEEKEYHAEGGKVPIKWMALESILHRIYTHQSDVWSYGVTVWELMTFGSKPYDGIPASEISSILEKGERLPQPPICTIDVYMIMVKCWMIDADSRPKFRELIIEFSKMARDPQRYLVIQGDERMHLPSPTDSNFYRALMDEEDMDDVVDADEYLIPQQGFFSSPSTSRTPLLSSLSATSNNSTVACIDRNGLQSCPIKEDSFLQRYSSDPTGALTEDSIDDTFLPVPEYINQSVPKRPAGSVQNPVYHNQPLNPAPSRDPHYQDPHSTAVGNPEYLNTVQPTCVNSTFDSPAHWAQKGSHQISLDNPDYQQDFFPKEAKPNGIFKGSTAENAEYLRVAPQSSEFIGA
# assay.protocol: EGFR degradation HTRF assay, BaF3 WT cells
# Format: cell-based
# test.conditions: BaF3 WT, 16h treatment, maximum percentage of degradation; read-out: WT Dmax (%)
# Method: BaF3 WT(wild type), BaF3-LTC(L858R/T790M/C797S) and BaF3-DTC(Del19/T790M/C797S) cells are treated with compounds diluted in 0.2% DMSO cell culture medium and incubate for 16h, 37° C., 5% CO2, H1975-#36, H1975-#28, H1975-#23 and HCC827 cells are treated with compounds diluted in 0.2% DMSO cell culture medium on day 2, incubate for 16h, 37° C., 5% CO2.the final concentriation of compounds in all assay is start with 10 uM, 5-fold dilution, total 8 doses were included. […]
Mark true only when Dmax stays strictly below 20%. Values equal to the cut-off are false.

CP(C)(=O)c1c(Nc2nc(Nc3ccc(N4CCN(C5CN(CC6CN(c7ccc8c(c7)C(=O)N(C7CCC(=O)NC7=O)C8=O)C6)C5)CC4)c(F)c3)ncc2Br)ccc2nccnc12 (centres unmarked)
true
CCc1cc(Nc2ncc(Br)c(Nc3ccc4nccnc4c3P(C)(C)=O)n2)c(OC)cc1N1CCC(N2CCN(CCc3ccc(NC4CCC(=O)NC4=O)cc3)CC2)CC1 (centres unmarked)
false
CCc1cc(Nc2ncc(Br)c(Nc3ccc4nccnc4c3P(C)(C)=O)n2)c(OC)cc1N1CCC(N2CCN(CCc3ccc(C4CCC(=O)NC4=O)c(F)c3)CC2)CC1 (centres unmarked)
false
CCc1cc(Nc2ncc(Br)c(Nc3ccc4nccnc4c3P(C)(C)=O)n2)c(OC)cc1N1CCC(N2CCN(CC3CCN(c4ccc5c(c4)C(=O)N(C4CCC(=O)NC4=O)C5=O)CC3)CC2)CC1 (centres unmarked)
true
CCc1cc(Nc2ncc(Br)c(Nc3ccc4nccnc4c3P(C)(C)=O)n2)c(OC)cc1N1CCC(N2CCN(CCCC3CN(c4ccc5c(c4)C(=O)N(C4CCC(=O)NC4=O)C5=O)C3)CC2)CC1 (centres unmarked)
true
COc1cc(N2CCC(N3CCN(C(=O)CCCCN4CCN(c5ccc6c(c5)C(=O)N(C5CCC(=O)NC5=O)C6=O)CC4)CC3)CC2)ccc1Nc1ncc(Cl)c(Nc2ccccc2N(C)S(C)(=O)=O)n1 (centres unmarked)
true

Q: Problem: For the compound COc1cc(N2CCC(N3CCN(C(=O)C4CCN(CC5CCN(c6ccc7c(c6)C(=O)N(C6CCC(=O)NC6=O)C7=O)CC5)CC4)CC3)CC2)ccc1Nc1ncc(Cl)c(Nc2ccccc2P(C)(C)=O)n1 (centres unmarked) , is Dmax under 20%?
Result: false

Q: Record CCc1cc(Nc2ncc(Br)c(Nc3ccc4nccnc4c3P(C)(C)=O)n2)c(OC)cc1N1CCC(N2CCN(C(=O)[C@@H]3CCN(c4ccc5c(c4)C(=O)N(C4CCC(=O)NC4=O)C5=O)C3)CC2)CC1 (some centres unmarked) : is its Dmax strictly below 20%?
Result: true

----------
# Dmax (%) H1975 # 28 DTC annotations
# System: EGFR Del19/T790M/C797S (H1975-clone #28)
# assay.protocol: EGFR degradation HTRF assay, H1975-clone #28 DTC cells
# Format: cell-based
# test.conditions: H1975 # 28 DTC cells; maximum percentage of inhibition (degradation)
Field format: number, assumed %, no unit text.

CCc1cc(Nc2ncc(Br)c(Nc3ccc4c(=O)n(C5CC5)ncc4c3P(C)(C)=O)n2)c(OC)cc1N1CCC(N2CCN(CCc3cc(F)c(C4CCC(=O)NC4=O)c(F)c3)CC2)CC1 (stereo not shown)
80.24

For reference, reported Dmax (%) H1975 # 28 DTC for CCOc1cc(N2CCC(N3CCN(CCc4c(F)ccc5c4n(C)c(=O)n5C4CCC(=O)NC4=O)CC3)CC2)c(CC)cc1Nc1ncc(Br)c(Nc2ccc3nc(CC)ccc3c2P(C)(C)=O)n1 (stereo not shown) [Example 503] stands at 79.81

Measured Dmax (%) H1975 # 28 DTC of CCc1ncc2c(P(C)(C)=O)c(Nc3nc(Nc4cc(CC)c(N5CCC(N6CCN(C(=O)Cc7ccc8c(c7)oc(=O)n8C7CCC(=O)NC7=O)CC6)CC5)cc4OC)ncc3Br)ccc2n1 (stereo not shown) : 74.64

Reported Dmax (%) H1975 # 28 DTC for CCc1cc(Nc2ncc(Br)c(Nc3ccc4nc(C)ccc4c3P(C)(C)=O)n2)c(OC)cc1N1CCC(N2CCN(CCC3CN(c4cccc5c4CN(C4CCC(=O)NC4=O)C5=O)C3)CC2)CC1 (stereo not shown) was 73

The value of Dmax (%) H1975 # 28 DTC measured for the compound `CCc1ccc2c(P(C)(C)=O)c(Nc3nc(Nc4cc(CC)c(N5CCC(N6CCN(C(=O)CN7CCN(c8cc(F)c([C@H]9CCC(=O)NC9=O)c(F)c8)CC7)CC6)CC5)cc4OC)ncc3Br)ccc2n1` turned out to be 85.47

Dmax (%) H1975 # 28 DTC recorded for this compound, CCc1cc(Nc2ncc(Br)c(Nc3ccc4nc(C)ccc4c3P(C)(C)=O)n2)c(OC)cc1N1CCC(N2CCN(CCC3CCN(c4cc(F)c(C5CCC(=O)NC5=O)c(F)c4)CC3)C(=O)C2)CC1 (stereo not shown) , is 68.81

----------
# tgt: EGFR L858R/T790M/C797S (BaF3-LTC cells) (Homo sapiens, UniProt P00533, C797S/L858R/T790M)
# Construct: expressed in transfected cells; host or cells: BaF3
# assay.protocol: EGFR degradation HTRF assay, BaF3-LTC cells
# Format: cell-based
# test.conditions: BaF3-LTC, 16h treatment; read-out: LTC DC50
Rule: DC50 below 20 nM gives true (1), anything at or above gives false (0).

Q: Record COc1cc(N2CCC(N3CCN(CCC4CCN(c5cc(F)c(C6CCC(=O)NC6=O)c(F)c5)CC4)CC3)CC2)ccc1Nc1ncc(Br)c(Nc2ccc3nccnc3c2P(C)(C)=O)n1 (centres unmarked) [Example 213] : is its DC50 strictly below 20 nM?
Result: false (0)

----------
# tgt: EGFR L858R/T790M/C797S (BaF3-LTC cells) (Homo sapiens, UniProt P00533, C797S/L858R/T790M)
# Construct: expressed in transfected cells; host or cells: BaF3
# assay.protocol: EGFR degradation HTRF assay, BaF3-LTC cells
# Assay type: cell-based
# test.conditions: BaF3-LTC cells; maximum percentage of inhibition (degradation); read-out: Dmax (%) BaF3-LTC
# Procedure: BaF3 WT(wild type), BaF3-LTC(L858R/T790M/C797S) and BaF3-DTC(Del19/T790M/C797S) cells are treated with compounds diluted in 0.2% DMSO cell culture medium and incubate for 16h, 37° C., 5% CO2, H1975-#36, H1975-#28, H1975-#23 and HCC827 cells are treated with compounds diluted in 0.2% DMSO cell culture medium on day 2, incubate for 16h, 37° C., 5% CO2.the final concentriation of compounds in all assay is start with 10 uM, 5-fold dilution, total 8 doses were included. […]
measured.attribute: Dmax
Answer format: value, then unit.

Examples from the recorded data:
CCOc1cc(N2CCC(N3CCN(CCc4c(F)cc5c(oc(=O)n5C5CCC(=O)NC5=O)c4C)CC3)CC2)c(CC)cc1Nc1ncc(Br)c(Nc2ccc3c(=O)n(CC)ncc3c2P(C)(C)=O)n1 (stereo not shown) [Example 613]
88.6%
CCOc1cc(N2CCC(N3CCN(CCc4c(F)cc5c(oc(=O)n5C5CCC(=O)NC5=O)c4F)CC3)CC2)c(CC)cc1Nc1ncc(Br)c(Nc2ccc3c(=O)n(CC)ncc3c2P(C)(C)=O)n1 (stereo not shown) [Example 629]
89.5%
CCc1ccc2c(P(C)(C)=O)c(Nc3nc(Nc4cc(C5CC5)c(N5CCC(N6CCN(CCc7cccc8c7oc(=O)n8C7CCC(=O)NC7=O)CC6)CC5)cc4OC)ncc3Br)ccc2n1 (stereo not shown) [Example 631]
86.8%

CCOc1cc(N2CCC(N3CCN(CC4CN(c5cc(F)cc6c5oc(=O)n6C5CCC(=O)NC5=O)C4)CC3)CC2)c(CC)cc1Nc1ncc(Br)c(Nc2ccc3nc(CC)ccc3c2P(C)(C)=O)n1 (stereo not shown) [Example 479] tested on EGFR L858R/T790M/C797S (BaF3-LTC cells) (Homo sapiens, UniProt P00533, C797S/L858R/T790M) gave Dmax: 88.8%

Item: CCOc1cc(N2CCC(N3CCN(CCc4cc(F)c5c(c4)C4(CC4)C(=O)N5C4CCC(=O)NC4=O)CC3)CC2)c(CC)cc1Nc1ncc(Br)c(Nc2ccc3nc(CC)ccc3c2P(C)(C)=O)n1 (stereo not shown) [Example 659] | System: EGFR L858R/T790M/C797S (BaF3-LTC cells) (Homo sapiens, UniProt P00533, C797S/L858R/T790M) | Dmax: 73.3%

Known value: EGFR L858R/T790M/C797S (BaF3-LTC cells) (Homo sapiens, UniProt P00533, C797S/L858R/T790M) Dmax of the molecule CCc1cc(Nc2ncc(Br)c(Nc3ccc4nc(NC5CC5)ccc4c3P(C)(C)=O)n2)c(OC)cc1N1CCC(N2CCN(C(=O)[C@@H]3CCN(c4cc(F)c([C@H]5CCC(=O)NC5=O)c(F)c4)C3)CC2)CC1 [Example 652] equals 81.1%

Record CCOc1cc(N2CCC(N3CCN(CC4CCN(c5cccc6c5oc(=O)n6C5CCC(=O)NC5=O)CC4)CC3)CC2)c(CC)cc1Nc1ncc(Br)c(Nc2ccc3c(=O)n(CC)ncc3c2P(C)(C)=O)n1 (stereo not shown) [Example 582] ; system EGFR L858R/T790M/C797S (BaF3-LTC cells) (Homo sapiens, UniProt P00533, C797S/L858R/T790M); Dmax = 93.1%
